Sourced from patent US20040082551A1

Target: human p38 kinase alpha (Homo sapiens, UniProt Q16539)
Construct: The coding region of the human p38α cDNA was obtained by PCR-amplification from RNA isolated from the human monocyte cell line THP.1; made in house; host or cells: E. coli DH10B
Sequence (Q16539 whole entry): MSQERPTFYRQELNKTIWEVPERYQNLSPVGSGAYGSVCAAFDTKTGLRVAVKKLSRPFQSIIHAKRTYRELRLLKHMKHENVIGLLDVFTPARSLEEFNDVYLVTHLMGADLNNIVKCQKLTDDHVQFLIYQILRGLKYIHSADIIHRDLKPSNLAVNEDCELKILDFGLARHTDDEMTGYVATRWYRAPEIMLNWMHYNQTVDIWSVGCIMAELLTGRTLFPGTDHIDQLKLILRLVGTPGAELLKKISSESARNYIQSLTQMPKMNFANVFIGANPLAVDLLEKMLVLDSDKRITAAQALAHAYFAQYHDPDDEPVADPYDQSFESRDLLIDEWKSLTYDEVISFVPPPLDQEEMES
Assay: In vitro p38 kinase inhibition analysis (PHAS-I 32P-ATP or EGFRP 33P-ATP format)
Assay type: biochemical
Settings: Table 2; additional pyrazole compounds, Examples 56-169; read-out: p38α Kinase Inhibition (IC50 in μM)
property-label: IC50 (µM)
// note: answer is a bare numeric in µM

// below: answered compounds
- structure: "CN(C)CCNc1nccc(-c2c(-c3ccc(Cl)cc3F)n[nH]c2C2CCN(C(=O)OC(C)(C)C)CC2)n1"
  IC50 / µM: 4.4
- structure: "N#Cc1ccc(-c2n[nH]c(C3CCN(C(=O)CO)CC3)c2-c2ccncn2)cc1"
  IC50 / µM: 7.06
- structure: "O=C(CO)N1CCC(c2[nH]nc(-c3ccc(Cl)c(C(F)(F)F)c3)c2-c2ccncn2)CC1"
  IC50 / µM: 3.16

Here is another compound to look at.
Entry COc1cc(Cl)ccc1-c1n[nH]c(C2CCN(C(=O)COC(C)=O)CC2)c1-c1ccncn1 , IC50 reported as 22.8

----------
Biological target: human p38 kinase alpha (Homo sapiens)
Construct: The coding region of the human p38α cDNA was obtained by PCR-amplification from RNA isolated from the human monocyte cell line THP.1; made in house; host or cells: E. coli DH10B
Experiment: In vitro p38 kinase inhibition analysis (PHAS-I 32P-ATP or EGFRP 33P-ATP format)
Format: biochemical
Settings: Table 2; additional pyrazole compounds, Examples 56-169; read-out: p38α Kinase Inhibition (IC50 in μM)
Exam item: assign true (1) to entries whose IC50 is below 0.2 µM and false (0) to entries at or above 0.2 µM. Note that a value of exactly 0.2 µM receives false (0).

These recorded examples may help you get a feel for the data.
- compound: "O=C(CO)N1CCC(c2[nH]nc(-c3ccc(F)c(C(F)(F)F)c3)c2-c2ccnc(NC3CCCC3)n2)CC1 [Example 169]"
  group: "true (1)"
- compound: "CCN1CCN([C@H]2CC[C@H](c3[nH]nc(-c4ccc(Cl)cc4)c3-c3ccncn3)CC2)CC1 [Example 58]"
  group: "true (1)"
- compound: "C[C@H](O)C(=O)N1CCC(c2[nH]nc(-c3cc(Cl)ccc3F)c2-c2ccncn2)CC1 [Example 110]"
  group: "false (0)"
- compound: "CN(C)CC(=O)OCC(=O)N1CCC(c2[nH]nc(-c3ccc(Cl)cc3)c2-c2ccncn2)CC1 [Example 130]"
  group: "true (1)"
- compound: "CC(=O)OCC(=O)N1CCC(c2[nH]nc(-c3ccc(Cl)c(Cl)c3)c2-c2ccncn2)CC1 [Example 66]"
  group: "false (0)"
- compound: "CN(C)CCNc1nccc(-c2c(-c3ccc(Cl)cc3F)n[nH]c2C2CCN(C(=O)CO)CC2)n1 [Example 162]"
  group: "false (0)"
- compound: "CN(C)CCNc1nccc(-c2c(-c3ccc(F)c(C(F)(F)F)c3)n[nH]c2C2CCN(C)CC2)n1 [Example 166]"
  group: "false (0)"
- compound: "CN1CCC(c2[nH]nc(-c3ccc(Cl)cc3)c2-c2ccnc(NC3CCN(Cc4ccccc4)CC3)n2)CC1 [Example 152]"
  group: "true (1)"

Say whether its IC50 is strictly beneath 0.2 µM. Entry: CN(C)CCNc1nccc(-c2c(-c3cccc(Cl)c3)n[nH]c2C2CCN(C(=O)CO)CC2)n1 [Example 117]
false (0)
